biological target: human muscarinic M1 receptor (Homo sapiens); assay: Alphascreen Surefire phospho-ERK1/2 functional assay, M1; assay type: cell-based; settings: CHO, read-out: % Emax cf. ACh, M1, CHO cells stably expressing human M1; relative to ACh
Sequence (P11229 whole entry): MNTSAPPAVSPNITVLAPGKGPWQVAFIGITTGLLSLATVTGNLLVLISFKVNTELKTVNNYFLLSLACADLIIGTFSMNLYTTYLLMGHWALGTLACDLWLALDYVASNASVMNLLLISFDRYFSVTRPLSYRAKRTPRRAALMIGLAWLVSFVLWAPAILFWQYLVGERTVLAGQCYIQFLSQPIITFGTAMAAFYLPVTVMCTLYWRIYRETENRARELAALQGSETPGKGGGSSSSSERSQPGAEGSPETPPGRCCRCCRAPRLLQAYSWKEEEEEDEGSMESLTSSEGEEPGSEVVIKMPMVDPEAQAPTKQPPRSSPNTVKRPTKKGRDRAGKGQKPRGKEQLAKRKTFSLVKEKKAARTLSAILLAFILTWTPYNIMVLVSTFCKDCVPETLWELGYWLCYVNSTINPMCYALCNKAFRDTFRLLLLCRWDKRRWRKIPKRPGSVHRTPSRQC
Item-by-item account of Emax
Numbers only here, please. The scale is %.

Worked set:
Form field: reported Emax of CCOC(=O)N1CCC2(CC(N3CCC(N4CCCC[C@@H]4C(=O)NC)CC3)C2)C1 (single isomer, unassigned) [4-16 Isomer 2]
94

Input CCOC(=O)N1CCC2(CC(N3CCC(N4CC(F)(F)C[C@@H]4C(C)O)CC3)C2)C1 (single isomer, unassigned) [2-109 Isomer 2]
50

Input CCOC(=O)N1CCC2(CC(N3CCC(c4nc(C(F)(F)F)cn4C)CC3)C2)C1 (single isomer, unassigned) [1-15 Isomer 2]
70

Input CCOC(=O)N1CCC2(CC(N3CCC(c4nn(C)cc4C)CC3)C2)C1 (single isomer, unassigned) [1-56 Isomer 2]
30

Input CCOC(=O)N1CCC2(CC(N3CCC(N4C(=O)OC[C@@H]4CC)CC3)C2)C1 (single isomer, unassigned) [2-122 Isomer 2]
59

Here is the next item to consider.
Form field: reported Emax of CCOC(=O)N1CCC2(CC(N3CCC(C4CCCN4C(=O)NOC)CC3)C2)C1 (single isomer, unassigned) [2-24 Isomer 2]
37

###

molecular target: human muscarinic M4 receptor (Homo sapiens, UniProt P08173); construct: expressed in transfected cells; assay: Alphascreen Surefire phospho-ERK1/2 functional assay, M4; format: cell-based; conditions: CHO cells stably expressing human M4; phospho-ERK1/2; * = variable results; read-out: pEC50 M4 (converted)
Sequence (P08173 whole entry): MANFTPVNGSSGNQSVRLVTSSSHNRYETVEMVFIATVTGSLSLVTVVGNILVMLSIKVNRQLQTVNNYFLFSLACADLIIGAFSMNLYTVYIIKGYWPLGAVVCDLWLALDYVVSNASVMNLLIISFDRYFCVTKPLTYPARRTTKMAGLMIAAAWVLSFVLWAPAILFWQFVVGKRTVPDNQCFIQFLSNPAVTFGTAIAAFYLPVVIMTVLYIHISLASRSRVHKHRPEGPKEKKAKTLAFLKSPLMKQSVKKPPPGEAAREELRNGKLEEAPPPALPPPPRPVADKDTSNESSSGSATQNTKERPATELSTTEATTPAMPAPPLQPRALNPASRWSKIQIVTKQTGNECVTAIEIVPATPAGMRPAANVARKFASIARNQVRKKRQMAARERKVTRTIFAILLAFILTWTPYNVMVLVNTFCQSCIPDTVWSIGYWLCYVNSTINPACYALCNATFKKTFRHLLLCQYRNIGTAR
Item-by-item account of log10 of EC50
Note: values are log10 of EC50 expressed in nM.

Worked set:
Form field: reported log10 of EC50 of CCOC(=O)N1CCC2(CC(N3CCC(O)(c4nccn4C)CC3)C2)C1 (single isomer, unassigned) [1-39 Isomer 2]
2.60

Input CCOC(=O)N1CCC2(CC(N3CCC(N4CCCCCC4C(=O)OC)CC3)C2)C1 (single isomer, unassigned) [5-2 Isomer 2]
1.70

Input CCOC(=O)N1CCC2(CC(N3CCC(N4CCCC4c4nnn[nH]4)CC3)C2)C1 (single isomer, unassigned) [2-128 Isomer 2]
3.20

More entries:
Form field: reported log10 of EC50 of CCOC(=O)N1CCC2(CC(N3CCC(C4CCCN4C(C)=O)CC3)C2)C1 (single isomer, unassigned) [2-3 Isomer 2]
1.70

Input CCOC(=O)N1CCC2(CC(N3CCC(c4cscn4)CC3)C2)C1 (single isomer, unassigned) [1-50 Isomer 2]
0.30

Input CCOC(=O)N1CCC2(CC(N3CCC(N4CCC[C@@H]4C(F)(F)F)CC3)C2)C1 (single isomer, unassigned) [2-104 Isomer 2]
1.20

###

biological target: human muscarinic M4 receptor (Homo sapiens); construct: expressed in transfected cells; test: Alphascreen Surefire phospho-ERK1/2 functional assay, M4; assay type: cell-based; conditions: CHO cells stably expressing human M4; phospho-ERK1/2; * = variable results; read-out: pEC50 M4 (converted)
Item-by-item account of EC50
Numbers only here, please. The scale is nM.

Form field: reported EC50 of CCOC(=O)N1CCC2(CC(N3CCC(c4nccn4CCOC)CC3)C2)C1 (single isomer, unassigned) [1-51 Isomer 2]
158

More entries:
Form field: reported EC50 of CCOC(=O)N1CCC2(CC(N3CCC(N4CCCC[C@H]4C(=O)NC)CC3)C2)C1 (single isomer, unassigned) [4-18 Isomer 2]
631

Input CCOC(=O)N1CCC2(CC(N3CCC(N4CC(F)(F)C[C@@H]4C(C)O)CC3)C2)C1 (single isomer, unassigned) [2-109 Isomer 4]
20

Input CCOC(=O)N1CCC2(CC(N3CCC(c4nc(C)no4)CC3)C2)C1 (single isomer, unassigned) [1-29 Isomer 2]
126
